# target_or_system: IgE antibodies of the allergic patient serum pool We 6/97
# run_description: EAST inhibition, serum pool We 6/97
reported_metric: allergenic potency (Prel) at 50% inhibition (relative to native Phl p 5b)

binder	test_result
natural Phl p 5b, purified by affinity chromatography (protein) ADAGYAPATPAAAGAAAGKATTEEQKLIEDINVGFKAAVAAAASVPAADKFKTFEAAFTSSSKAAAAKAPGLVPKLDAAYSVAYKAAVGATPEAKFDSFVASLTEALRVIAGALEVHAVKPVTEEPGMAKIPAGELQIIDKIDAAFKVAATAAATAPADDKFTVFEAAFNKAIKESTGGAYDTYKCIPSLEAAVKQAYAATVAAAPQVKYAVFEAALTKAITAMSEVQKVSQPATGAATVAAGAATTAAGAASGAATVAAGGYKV	1
recombinant Phl p 5b (wild type) (protein) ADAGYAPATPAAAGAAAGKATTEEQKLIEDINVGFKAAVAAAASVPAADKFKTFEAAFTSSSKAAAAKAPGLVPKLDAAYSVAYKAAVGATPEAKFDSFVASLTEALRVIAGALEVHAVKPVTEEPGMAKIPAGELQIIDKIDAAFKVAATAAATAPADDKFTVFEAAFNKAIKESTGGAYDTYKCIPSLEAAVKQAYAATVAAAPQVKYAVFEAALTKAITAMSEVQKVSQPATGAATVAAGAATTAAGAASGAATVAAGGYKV	0.44
rPhl p 5b deletion mutant DM1 (deletion K50-P132, D49L) (protein) ADAGYAPATPAAAGAAAGKATTEEQKLIEDINVGFKAAVAAAASVPAALAGELQIIDKIDAAFKVAATAAATAPADDKFTVFEAAFNKAIKESTGGAYDTYKCIPSLEAAVKQAYAATVAAAPQVKYAVFEAALTKAITAMSEVQKVSQPATGAATVAAGAATTAAGAASGAATVAAGGYKV	0.0004

Cited source for all entries: patent US6919086B1
